Every entry's value here was drawn from PubChem BioAssay (NCATS).

- method_notes: Quantitative High-Throughput drug screen in 47 multiple myeloma cell lines against the NCATS MIPE library collection: KMS27_JCRB cell viability assay (AID 1918970); note: nearly all actives have a fitted effect of over 30% in size
- recorded_conditions: KMS27 myeloma cells, CellTiter-Glo ATP viability, 48 h
Inconclusive results are not listed. Calls of active or inactive are those of the source. Calls come from the whole dose curve; as a rule, active = well fitted cell-killing curve with a large enough effect; inconclusive = small, poorly fitted or top-dose-only effect, or effect the other way; inactive = no such curve, though single readings can be large or run the other way. Non-standard residues stand in square brackets, D forms with d. Residues, ends and D or L forms follow the SMILES beside them. *: point of attachment. Nva = CCC[C@H](N)C(=O)O; Cbz = O=C(OCc1ccccc1)*
Your response should consist of one outcome taken from active, inactive

For this compound, state the assay outcome: CC(C)C[C@H](NC(=O)CNC(=O)c1cc(Cl)ccc1Cl)B1OC(=O)CC(CC(=O)O)(C(=O)O)O1 (stereo partly specified)
active

For this compound, state the assay outcome: CON=C(C(=O)N[C@@H]1C(=O)N2C(C(=O)O)=C(Cn3ccc(=N)n3CCO)CS[C@H]12)c1csc(N)n1
inactive

For this compound, state the assay outcome: O=C(O)c1ccc(Nc2ncc3c(n2)-c2ccc(Cl)cc2C(c2c(F)cccc2F)=NC3)cc1
inactive

For this compound, state the assay outcome: C=Cc1c(C)c2cc3nc(cc4[nH]c(cc5nc(cc1[nH]2)C(C)=C5CCC(=O)O)c(CCC(=O)OC)c4C)[C@@]1(C)C3=CC=C(C(=O)OC)[C@H]1C(=O)OC
active

For this compound, state the assay outcome: COC(=O)[C@@H]1CC2=CC(=O)CC[C@]2(C)[C@@]23O[C@@H]2C[C@@]2(C)[C@H](CC[C@@]24CCC(=O)O4)[C@@H]13
inactive

For this compound, state the assay outcome: FC(F)c1nc2ccccc2n1-c1nc(N2CCOCC2)nc(N2CCOCC2)n1
active

For this compound, state the assay outcome: C=C1C[C@@]2(O)O[C@@]3(C[C@H]2C(C)C)[C@H](C)CC[C@H]13
inactive

For this compound, state the assay outcome: OCC(O)C(O)C(O)CO (stereo unspecified)
inactive

For this compound, state the assay outcome: N#Cc1c(NC(=O)c2cccc3ccccc23)sc2c1CCCC2
active

For this compound, state the assay outcome: O=C(CCCCCCC(=O)Nc1cccnc1)NO
active

For this compound, state the assay outcome: CC(C)(C)c1nc2c3cc[nH]c(=O)c3c3cc(F)ccc3c2[nH]1
inactive

For this compound, state the assay outcome: CNC(=O)c1ccc(Nc2cc(Nc3ccccc3S(=O)(=O)C(C)C)c3cc[nH]c3n2)nc1
active

For this compound, state the assay outcome: CC(=O)[C@]1(O)Cc2c(O)c3c(c(O)c2[C@@H](O[C@H]2C[C@H](N)[C@@H](O)[C@H](C)O2)C1)C(=O)c1ccccc1C3=O
active

For this compound, state the assay outcome: c1cc(CN2CCCNCCNCCCNCC2)ccc1CN1CCCNCCNCCCNCC1
inactive

For this compound, state the assay outcome: Nc1ncn([C@@H]2O[C@H](CO)[C@@H](O)[C@@H]2O)c(=O)n1
active

For this compound, state the assay outcome: O=C1NC(=O)C(=Cc2ccc3nccc(-c4ccncc4)c3c2)S1
active

For this compound, state the assay outcome: CCOC(=O)[C@@H](N)Cc1ccc(-c2cc(O[C@H](c3ccc(Cl)cc3-n3ccc(C)n3)C(F)(F)F)nc(N)n2)cc1
active

For this compound, state the assay outcome: Cc1cncc2cccc(S(=O)(=O)N3CCCN(C(=O)CN)C[C@@H]3C)c12
active

For this compound, state the assay outcome: CN1[C@H]2CC(OC(=O)[C@@H](CO)c3ccccc3)C[C@H]1[C@H]1O[C@H]12 (stereo partly specified)
inactive

For this compound, state the assay outcome: C=CCNC1=C2C[C@@H](C)C[C@H](OC)[C@@H](O)[C@@H](C)C=C(C)[C@H](OC(N)=O)[C@@H](OC)C=CC=C(C)C(=O)NC(=CC1=O)C2=O
active

For this compound, state the assay outcome: COC(=O)[C@@H]1[C@H]2C[C@@H]3c4[nH]c5ccccc5c4CCN3C[C@@H]2CC[C@@H]1O
inactive

For this compound, state the assay outcome: N#CNC(=NCCCCCCOc1ccc(Cl)cc1)Nc1ccncc1
active

For this compound, state the assay outcome: Cn1cc(-c2cnn3c(N)c(Br)c([C@H]4CCCNC4)nc23)cn1
active

For this compound, state the assay outcome: CCC[C@H]1C[C@H](C(=O)N[C@@H]([C@@H]2O[C@@H](SC)[C@@H](O)[C@@H](O)[C@@H]2O)[C@H](C)Cl)N(C)C1
inactive

For this compound, state the assay outcome: CCC[C@@H](C=O)NC(=O)[C@H](CC(C)C)NC(=O)[C@H](CC(C)C)NC(=O)OCc1ccccc1 (Cbz-Leu-Leu-[Nva]-aldehyde)
active

For this compound, state the assay outcome: COc1cc(O)c2c(c1)C1OC1C[C@H](O)[C@H](O)C(=O)C=CC[C@H](C)OC2=O (stereo partly specified)
active

For this compound, state the assay outcome: CCNC(=O)c1cc2c(-c3cc(OCCN4CCCC4)c(Cl)cc3Cl)nc(N)nc2s1
active

For this compound, state the assay outcome: CC(C)OC(=O)[C@H](C)N[P@](=O)(OC[C@H]1O[C@@H](n2ccc(=O)[nH]c2=O)[C@](C)(F)[C@H]1O)Oc1ccccc1
inactive

For this compound, state the assay outcome: CCOC(=O)C=C[C@H](C[C@@H]1CCNC1=O)NC(=O)[C@@H](CC(=O)[C@@H](NC(=O)c1cc(C)on1)C(C)C)Cc1ccc(F)cc1
inactive

For this compound, state the assay outcome: CCN(CC)Cc1ccc2cc(COC(=O)Nc3ccc(C(=O)NO)cc3)ccc2c1
active

For this compound, state the assay outcome: Cc1cc(O)c2c(c1)C(=O)c1cccc(O)c1C2=O
inactive

For this compound, state the assay outcome: Cc1cc(C(=O)NOCCO)c(Nc2ccc(I)cc2F)n(C)c1=O
active

For this compound, state the assay outcome: CCCCOc1ccc(C(=O)Nc2ccc(F)cc2F)cc1
inactive

For this compound, state the assay outcome: Cc1ncc(-c2ccnc(Nc3ccc(S(C)(=O)=O)cc3)n2)n1C(C)C
active

For this compound, state the assay outcome: COc1cc([C@@H]2c3cc4c(cc3[C@H](O)[C@H]3COC(=O)[C@@H]23)OCO4)cc(OC)c1OC
active

For this compound, state the assay outcome: CN[C@H]1[C@@H](O)[C@@H]2O[C@@H]3O[C@H](C)CC(=O)[C@]3(O)O[C@@H]2[C@@H](NC)[C@H]1O
active
